# systemUnderTest: T1, human TREM2 (human, UniProt Q9NZC2 19-174, limits assumed)
# T1 sequence: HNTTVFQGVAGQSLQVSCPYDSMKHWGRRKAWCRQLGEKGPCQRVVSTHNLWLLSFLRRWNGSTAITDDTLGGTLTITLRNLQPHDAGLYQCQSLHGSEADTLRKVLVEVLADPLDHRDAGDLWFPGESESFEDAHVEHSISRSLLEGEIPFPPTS
# method: yeast-displayed Fab FACS, 2nd screen 100 nM
metric: binding signal fold over 6E7 parental (fold)
Write the answer as a number in fold, unit excluded.

V7 (Fab, V domains shown) VH: EVQLVQSGAEVKKPGESLKISCKGSGYSFTSEWIAWVRQMPGKGLEWMGIIYPGDSDTRYSPSFQGQVTISADKSISTAYLQWSSLKASDTAMYFCARQRTFYYDSSDYFDYWGQGTLVTVSS VL: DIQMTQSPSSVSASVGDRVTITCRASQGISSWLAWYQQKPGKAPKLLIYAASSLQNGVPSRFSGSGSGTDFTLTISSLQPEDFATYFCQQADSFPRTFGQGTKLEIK: 0.32

Okay, now this binder:
The reported value for V11 (Fab, V domains shown) VH: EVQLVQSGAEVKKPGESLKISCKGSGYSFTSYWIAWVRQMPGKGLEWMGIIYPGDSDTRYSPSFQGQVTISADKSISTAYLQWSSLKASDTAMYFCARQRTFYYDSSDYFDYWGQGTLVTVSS VL: DIQMTQSPSSVSASVGDRVTITCRASQGISSWLAWYQQKPGKAPKLLIYAASSLQNGVPSRFSGSGSGTDFTLTISSLQPEDFATYFCQQAASFPRTFGQGTKLEIK in terms of binding signal fold over 6E7 parental is 0.42
